Assignment: determine reported folding stability dG for the given variants.
B1: r11_951_TrROS_Hall (parent)
chain: KKKYVIKVYFEDTGKEVEIEAESKEEALEAAKRLAEELGLKIKKVEIYP

Variants of: B1
Assay: folding stability dG (cDNA display proteolysis); higher = more stable
Details: PBS, room temperature
Mention the unit after the number when you answer.

// D12H : folding stability dG value = 4.49 kcal/mol

The variant listed as L28Y shows folding stability dG equal to 4.57 kcal/mol

Query K3W yields folding stability dG of 4.83 kcal/mol

Please fill in: folding stability dG reported for K43S = 4.15 kcal/mol

Looking up E26M , I found its folding stability dG recorded as 4.38 kcal/mol

// field: folding stability dG; key: K24F ; value = 4.32 kcal/mol

Input L38N . Output folding stability dG: 4.15 kcal/mol

Reported folding stability dG ( E37I ) = 4.61 kcal/mol

Lab note: measured folding stability dG of T13L was 4.29 kcal/mol

folding stability dG reported for this variant E16C : 4.05 kcal/mol

Value of folding stability dG reported for the variant Y9P is 1.42 kcal/mol

// folding stability dG value for L38W : 4.52 kcal/mol

Given item I47R , the value recorded as its folding stability dG is 3.79 kcal/mol

The recorded folding stability dG for entry E46C equals 4.15 kcal/mol

folding stability dG for T13P is 4.48 kcal/mol

// recorded folding stability dG for E26I : 4.22 kcal/mol

The variant K3Y showed folding stability dG equal to 4.54 kcal/mol

folding stability dG recorded for this variant, E29L , is 4.94 kcal/mol

Memo: V5Q , reported folding stability dG: 4.27 kcal/mol

Noted for I19A : its folding stability dG reads 3.98 kcal/mol

// field: folding stability dG; key: V45W ; value = 4.59 kcal/mol

Value of measured folding stability dG for the entry I47V : 4.33 kcal/mol

The measured folding stability dG associated with E26H reads 4.5 kcal/mol

Lab note: measured folding stability dG of A27S was 4.03 kcal/mol

The measured folding stability dG associated with E25T reads 4.28 kcal/mol

// sample E22R , its folding stability dG was 4.18 kcal/mol

The variant K32Q showed folding stability dG equal to 4.38 kcal/mol

For reference, reported folding stability dG for L38I stands at 4.29 kcal/mol

response.value for A35P (field: folding stability dG) = 2.83 kcal/mol

Lab note: E11Q gave folding stability dG of 4.79 kcal/mol

# variant K44N ; its folding stability dG = 4.41 kcal/mol

The variant listed as K1M shows folding stability dG equal to 4.8 kcal/mol

Recorded folding stability dG (variant K1P ): 4.64 kcal/mol

For this variant ( L28G ), measured folding stability dG is 4.17 kcal/mol

Quick note, folding stability dG for T13F landed at 4.36 kcal/mol

Looking up E22Y , I found its folding stability dG recorded as 4.52 kcal/mol

// folding stability dG value for T13V : 4.4 kcal/mol

The variant E29K showed folding stability dG equal to 4.53 kcal/mol

variant I19L , folding stability dG observed: 4.5 kcal/mol

folding stability dG recorded for this variant, Y9D , is 3.41 kcal/mol

The variant listed as E25M shows folding stability dG equal to 4.32 kcal/mol

Sure, the documented folding stability dG for K7Q is 3.75 kcal/mol

// folding stability dG lookup, variant = I6D , result: 0.044 kcal/mol

Looking up E29T , I see its folding stability dG listed as 4.71 kcal/mol

Note to self: folding stability dG recorded for V45Q was 3.87 kcal/mol

folding stability dG in this record for L38P : 2.86 kcal/mol

Sure, the documented folding stability dG for K41I is 4.19 kcal/mol

Looking up L28K , I found its folding stability dG recorded as 4.28 kcal/mol

The reported value for Y4K in terms of folding stability dG is 2.9 kcal/mol

folding stability dG recorded for this variant, K1I , is 4.6 kcal/mol

Short answer for V8Y : folding stability dG was 4.22 kcal/mol

Memo: V45L , reported folding stability dG: 4.08 kcal/mol

Entry V45M , folding stability dG reported as 4.47 kcal/mol
